Target Of Assay: T1, human CD11a (human) (UniProt P20701)
T1 sequence (looked up): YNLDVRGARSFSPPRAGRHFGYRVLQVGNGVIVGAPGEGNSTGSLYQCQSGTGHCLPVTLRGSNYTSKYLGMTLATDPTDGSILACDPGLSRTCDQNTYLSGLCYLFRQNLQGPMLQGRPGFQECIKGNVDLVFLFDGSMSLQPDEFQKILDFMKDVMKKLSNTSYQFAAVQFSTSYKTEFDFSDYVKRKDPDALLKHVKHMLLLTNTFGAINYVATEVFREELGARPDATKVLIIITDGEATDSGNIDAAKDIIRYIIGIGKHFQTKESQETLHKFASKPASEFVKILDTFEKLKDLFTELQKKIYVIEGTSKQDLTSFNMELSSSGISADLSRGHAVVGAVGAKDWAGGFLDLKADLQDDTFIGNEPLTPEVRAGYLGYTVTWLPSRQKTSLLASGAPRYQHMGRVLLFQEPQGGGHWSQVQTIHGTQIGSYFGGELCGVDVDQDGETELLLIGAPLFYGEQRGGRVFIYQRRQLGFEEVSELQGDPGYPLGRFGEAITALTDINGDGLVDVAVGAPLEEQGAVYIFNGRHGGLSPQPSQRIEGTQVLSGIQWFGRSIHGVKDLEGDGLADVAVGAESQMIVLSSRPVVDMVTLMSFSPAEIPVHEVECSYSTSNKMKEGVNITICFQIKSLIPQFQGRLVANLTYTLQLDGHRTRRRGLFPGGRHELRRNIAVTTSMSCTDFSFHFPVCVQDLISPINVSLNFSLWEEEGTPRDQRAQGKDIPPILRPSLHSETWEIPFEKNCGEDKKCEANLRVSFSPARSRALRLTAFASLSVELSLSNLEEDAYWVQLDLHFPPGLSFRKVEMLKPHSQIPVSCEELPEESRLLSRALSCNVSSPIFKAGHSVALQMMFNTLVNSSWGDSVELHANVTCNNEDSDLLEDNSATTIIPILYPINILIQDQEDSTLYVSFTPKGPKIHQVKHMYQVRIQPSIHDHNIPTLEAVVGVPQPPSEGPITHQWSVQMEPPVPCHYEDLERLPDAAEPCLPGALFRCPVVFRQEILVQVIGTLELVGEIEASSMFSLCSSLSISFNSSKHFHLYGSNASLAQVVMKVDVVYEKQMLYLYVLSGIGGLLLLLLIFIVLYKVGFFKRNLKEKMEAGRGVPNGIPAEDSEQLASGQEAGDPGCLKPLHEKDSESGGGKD
Assay Details: FACScan, Jurkat cells
The entries below come with measured Var.EC50/HuIgG1 EC50 values attached.
Please give the numeric answer without any surrounding text.

1) ThrH100aAla variant IgG1 (antibody, V domains shown) VH: EVQLVESGGGLVQPGGSLRLSCAASGYSFTGHWMNWVRQAPGKGLEWVGMIHPSDSETRYNQKFKDRFTISVDKSKNTLYLQMNSLRAEDTAVYYCARGIYFYGATYFDYWGQGTLVTVSS VL: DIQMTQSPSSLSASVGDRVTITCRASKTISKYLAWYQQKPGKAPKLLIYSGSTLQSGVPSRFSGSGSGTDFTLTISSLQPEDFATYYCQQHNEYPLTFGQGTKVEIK; 2.3
2) AspH54Ala variant IgG1 (antibody, V domains shown) VH: EVQLVESGGGLVQPGGSLRLSCAASGYSFTGHWMNWVRQAPGKGLEWVGMIHPSASETRYNQKFKDRFTISVDKSKNTLYLQMNSLRAEDTAVYYCARGIYFYGTTYFDYWGQGTLVTVSS VL: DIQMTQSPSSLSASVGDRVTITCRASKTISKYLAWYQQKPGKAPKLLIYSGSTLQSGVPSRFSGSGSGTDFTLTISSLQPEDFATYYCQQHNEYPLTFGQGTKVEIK; 147
3) TyrL94Ala variant IgG1 (antibody, V domains shown) VH: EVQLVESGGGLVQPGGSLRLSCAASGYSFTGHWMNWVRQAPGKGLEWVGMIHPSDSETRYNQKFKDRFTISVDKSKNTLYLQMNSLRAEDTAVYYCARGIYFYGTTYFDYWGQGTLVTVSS VL: DIQMTQSPSSLSASVGDRVTITCRASKTISKYLAWYQQKPGKAPKLLIYSGSTLQSGVPSRFSGSGSGTDFTLTISSLQPEDFATYYCQQHNEAPLTFGQGTKVEIKR; 11.8

Below: the item to evaluate.
Exam item: Identify Var.EC50/HuIgG1 EC50 associated with the binder ArgH58Ala variant IgG1 (antibody, V domains shown) VH: EVQLVESGGGLVQPGGSLRLSCAASGYSFTGHWMNWVRQAPGKGLEWVGMIHPSDSETAYNQKFKDRFTISVDKSKNTLYLQMNSLRAEDTAVYYCARGIYFYGTTYFDYWGQGTLVTVSS VL: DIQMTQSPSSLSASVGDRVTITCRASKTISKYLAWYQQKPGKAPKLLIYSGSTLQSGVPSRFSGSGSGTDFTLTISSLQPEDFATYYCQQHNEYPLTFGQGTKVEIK
Marked response: 1.1
